# Protocol description: small-molecule microarray binders of probe aEGFR, primary screen, biochemical, biotinylated probe, 635/667 nm fluorescence (AID 1097);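 also: probe is a biotinylated anti-EGFR antibody binding compounds printed on slides; score combines fluorescence near 667 nm and signal to noise of each spot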
# Details: higher = more signal

# Molecule, composite z-score
data = [
    ("CO[C@H]1COC(=O)[C@@H](OCc2ccccc2)C=C[C@H](C)[C@@H](OC)COC(=O)[C@H](OCc2ccccc2)C=C[C@@H]1C", -0.188),
    ("O=C1C2C=CC(C(O)C(c3ccccc3)c3ccccc3)N(Nc3ccc([N+](=O)[O-])cc3)C2C(=O)N1c1ccccc1 (configuration not stated)", 0.121),
    ("CC[C@H]1C2=C3C(CC[C@H]4C(OC)OC[C@](C)([C@@H]34)N(C(=O)OC(C)(C)C)C2)C(CO)C1CO (some centres not stated)", 0.477),
    ("CC(C)C[C@@H]1NC(=O)[C@H]2C[C@@H](C(=O)NCCCCCC[N+](C)(C)C)[C@@H](c3ccc(O)cc3)N2C1=O", -0.149),
    ("COCCOC(=O)N1C(=O)[C@@]2(c3cc(C#CCC(C(=O)OC)C(=O)OC)ccc31)[C@H](C(=O)N1CCN(c3ncccn3)CC1)[C@H]1C(=O)O[C@H](c3ccccc3)[C@H](c3ccccc3)N1[C@@H]2c1ccc(O)cc1", -0.0675),
    ("C[C@@H]1CC[C@H]2C(=O)N3[C@@H](CC[C@@H](C)[C@@H]3c3cccc(N4CCOCC4)c3)C(=O)N2[C@H]1c1cccc(Br)c1", 0.161),
    ("CC(C)N1CC=CC23O[C@@H]4/C=C\\CCCOC(=O)C4[C@H]2C(=O)N(CCCCCO)[C@@H]3C1=O (some centres not stated)", -0.364),
]

###

List of composite z-score values.
# Test system: Neuregulin-1 EGF-like domain
# Protocol description: binders of neuregulin-1 EGF-like domain, primary screen, biochemical, small-molecule microarray, 635 nm fluorescence (AID 1081);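 also: binding of the protein to compounds printed on small-molecule microarray slides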
# Details: small-molecule microarray binding, higher = more signal
Property measured: composite z-score

# Compound, Quantitative result
records = [
    ("COC(=O)C1=C(C)N(Cc2ccccc2)c2c(C(=O)OC)c(C(=O)OC)c(C(=O)OC)c(=O)n2[C@@H]1c1ccccc1", 0.721),
    ("COc1ccc([Si](C)(C)[C@H]2[C@H](CCO)O[C@@]3(C(=O)N(Cc4ccccc4)c4ccc(N5C(=O)c6cccc7cccc5c67)cc43)[C@@H]2C)cc1", 0.836),
    ("COc1cc2c(cc1OC)CN(C(=O)[C@H]1[C@@H]3C(=O)O[C@@H](c4ccccc4)[C@@H](c4ccccc4)N3[C@@H](c3ccccc3OCCO)[C@]13C(=O)Nc1ccc(C#CC4(O)CCCCCC4)cc13)CC2", 1.35),
    ("Cc1ccc(S[C@]2(C(=O)O)CC(=O)N(Cc3cc(C(F)(F)F)cc(C(F)(F)F)c3)[C@@H]2c2ccc(CO)cc2I)cc1", 0.603),
    ("CC(C)CNC(=O)[C@@]1(C)c2ccccc2C(=O)N(Cc2ccc(OC(F)(F)F)cc2)[C@H]1c1ccc(CO)cc1", 0.257),
    ("COCCOC(=O)N1C(=O)[C@@]2(c3cc(C#CCNC(N)=O)ccc31)[C@H](c1ccc(OCCO)cc1)N1[C@H](c3ccccc3)[C@H](c3ccccc3)OC(=O)[C@H]1[C@@H]2C(=O)N1CCCCCCC1", -0.116),
    ("COc1ccc(C(=O)Nc2ccc(CN3C(=O)[C@]4(O[C@H](CCn5cc(CCO)nn5)[C@@H]([Si](C)(C)c5ccc(OC)cc5)[C@@H]4C)c4ccccc43)cc2)cc1", 1.09),
    ("COC(=O)[C@H]1[C@@H]2COc3ccccc3[C@H]2N[C@H]1C(=O)OC", 0.428),
    ("C=CC[C@@]1(C(=O)N2CCOCC2)N=C(c2ccc(OCCCO)cc2)O[C@@H]1c1ccccc1", 1.08),
    ("NC(=O)NCC#Cc1ccc2c(c1)[C@]1(C(=O)N2)[C@H](C(=O)N2CCCCCCC2)[C@H]2C(=O)O[C@H](c3ccccc3)[C@H](c3ccccc3)N2[C@@H]1c1ccccc1OCCO", 0.589),
    ("CCC#CCN(Cc1ccccc1Br)[C@H](/C=C/c1ccccc1)[C@@H](O)Cc1ccccc1", -0.11),
    ("C[C@H]1COC(=O)[C@H](Cc2ccccc2)NC(=O)[C@@H](C)COC(=O)[C@H](Cc2ccccc2)NC1=O", 1.11),
    ("COCCOC(=O)N1C(=O)[C@@]2(c3cc(C#CCCO)ccc31)[C@H](C(=O)N1CCCCCCC1)[C@H]1C(=O)O[C@H](c3ccccc3)[C@H](c3ccccc3)N1[C@@H]2c1ccc(O)cc1", 1.13),
    ("O=C1OCCC=C[C@H]2OC34C=CCN(Cc5ccccc5)C(=O)[C@H]3N(CCO)C(=O)[C@@H]4C12 (some centres undefined)", -0.574),
]

###

# System: Inhibin beta A chain (activin A)
# Protocol description: INHBA (activin A) binders on microarrays, primary screen, biochemical, small-molecule microarray, 635 nm fluorescence scan (AID 1107);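 also: mouse activin A protein probed at 4.33 µg/mL on printed slides; score merges bound-protein fluorescence near 667 nm with spot signal-to-noise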
# Details: small-molecule microarray binding, higher = more signal

# Compound structure string, composite z-score
measured = [
    ("COCCCNC(=O)[C@@]1(c2ccc([N+](=O)[O-])cc2)CC(=O)N(C2CCCCC2)[C@@H]1c1ccc(CO)cc1", -0.395),
    ("C=CCc1cccc([C@@H]2[C@@H](C)CC[C@H]3C(=O)N4[C@H](c5cccc(CC=C)c5)[C@@H](C)CC[C@H]4C(=O)N23)c1", 1.67),
    ("COC(=O)C1=C(C)N(Cc2ccccc2)c2c(C(=O)OC)c(C(=O)OC)c(C(=O)OC)c(=O)n2[C@@H]1c1ccccc1", 0.16),
    ("C=C(COC)C(=O)CC[C@H](OC(=O)c1ccccc1-c1ccccc1C(=O)O)c1cccc(OCCO)c1", 1.01),
]

###

# Protocol description: mitochondrial membrane potential change in A549 cells, profiling panel, cell-based, JC-1 fluorescence, basal, 24 h, 100 nL (AID 1138);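 also: A549 lung adenocarcinoma cells under basal conditions with no added stimulus; test concentration not given here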
# Details: higher = more signal
Property measured: z-score

# Molecule, Property measured, Quantitative result
rows = [
    ("C=C(C)[C@@H]1CC=C(C(O)C2C=CC3C(=O)NC(=O)C3N2Nc2ccccn2)CC1 (stereo not given in full)", "z-score", 0.781),
    ("O=C1C[C@@](C(=O)NCCN2CCOCC2)(c2ccc([N+](=O)[O-])cc2)[C@@H](c2ccc(CO)cc2)N1C1CCCCC1", "z-score", 1.11),
    ("CO[C@H]1O[C@H](CO)[C@@H](OC(=O)Nc2ccc(Oc3ccccc3)cc2)[C@H](OC(=O)Nc2ccccc2-c2ccccc2)[C@H]1OC(=O)Nc1ccccc1-c1ccccc1", "z-score", -1.28),
    ("C[C@H]1NC(=O)[C@@H](C)NC(=O)[C@@]23C(=O)N[C@@H](Cc4ccccc4)C2[C@H](C)[C@@]2(C)O[C@H]2C3/C=C/C/C=C\\CNC1=O (stereo not given in full)", "z-score", 1.07),
    ("C=CC[C@]1(C(=O)O)N=C(c2ccc(OCCCO)cc2)O[C@H]1c1ccccc1N=[N+]=[N-]", "z-score", 1.28),
    ("O=C(NCC(O)CO)[C@]1(Cc2ccccc2)N=C(c2ccc(OCCCO)cc2)O[C@@H]1c1ccccc1 (stereo not given in full)", "z-score", 0.571),
    ("O=C(CS)NCCCCCNC(=O)[C@H]1C[C@H]2C(=O)N[C@@H](Cc3ccccc3)C(=O)N2[C@H]1c1ccc(O)cc1", "z-score", -0.586),
    ("C/C(=N\\O)C(=O)NCCCCCNC(=O)OCc1ccccc1", "z-score", 2.02),
    ("O=C(NCc1ccccc1)c1ccc(Br)cc1[N+](=O)[O-]", "z-score", 0.543),
    ("CO[C@H]1O[C@H](CO)[C@@H](OC(=O)CCc2ccccc2)[C@@H]2OC(=O)[C@H](Cc3cccc(Br)c3)C/C=C/C[C@@H](Cc3cccc(Br)c3)C(=O)O[C@@H]12", "z-score", 0.309),
    ("[N-]=[N+]=NCc1ccccc1C[C@@]1(C(=O)O)N=C(c2ccc(OCCCO)cc2)O[C@@H]1c1ccccc1N=[N+]=[N-]", "z-score", 0.376),
    ("[N-]=[N+]=Nc1ccccc1C[C@@]1(C(=O)N2CCOCC2)N=C(c2ccc(OCCCO)cc2)O[C@@H]1c1ccccc1N=[N+]=[N-]", "z-score", 2.03),
    ("COCCOC(=O)N1C(=O)[C@@]2(c3cc(C#CCNC(N)=O)ccc31)[C@H](C(=O)N1CCCCCCC1)[C@H]1C(=O)O[C@H](c3ccccc3)[C@H](c3ccccc3)N1[C@@H]2c1ccccc1OCCO", "z-score", -0.751),
    ("Cc1ccc(S[C@]2(C(=O)NC(C)C)CC(=O)N(Cc3cc(C(F)(F)F)cc(C(F)(F)F)c3)[C@@H]2c2ccc(CO)cc2I)cc1", "z-score", 0.598),
    ("CCCC[C@H]1OB(O)C[C@H]2C1=C(COC)C[C@H]1C(=O)N(Cc3ccccc3)C(=O)[C@H]12", "z-score", 1.03),
]
